Recorded values, source ChEMBL document CHEMBL1141787.

Test system: Candida albicans
Experiment: Antifungal activity against Candida albicans ATCC 90028 by modified NCCLS method
Assay type: functional, organism-based
Overview of recorded MIC for various compounds
parameter: MIC (µg/mL)

- CCO[C@H]1O[C@@H]2O[C@@]3(C)CC[C@H]4[C@H](C)CC[C@@H]([C@H]1C)[C@@]24OO3: 50
- C[C@@H]1[C@H](O)[C@@H](C)/C=C/C=C/C=C/C=C/C=C/C=C/C=C/[C@H](O[C@@H]2O[C@H](C)[C@@H](O)[C@H](N)[C@@H]2O)C[C@@H]2O[C@](O)(C[C@@H](O)C[C@@H](O)[C@H](O)CC[C@@H](O)C[C@@H](O)CC(=O)O[C@H]1C)C[C@H](O)[C@H]2C(=O)O: 0.15
- C[C@@H]1CC[C@H]2[C@@H](C)C(=O)O[C@@H]3O[C@@]4(C)CC[C@@H]1[C@]32OO4: 50
- CC1=CO[C@@H]2O[C@]3(C)CC[C@H]4[C@H](C)CC[C@@H]1[C@@]24OO3 [ANHYDRODIHYDROARTEMISININ]: 50
